- System: T-47D breast
- procedureSummary: NCI-60 one-dose screen, 48 h (100 = growth as untreated, 0 = no growth, -100 = all killed)
- conditionsUsed: 10 µM unless noted
About 83,000 compounds went through this panel and 20% of them were active in at least one assay; those are over-represented in the sample as a whole.
attributeMeasured: growth (%)
Answer with a number only, understood to be in %.

Answered cases to consult:
COc1ccc(/C=C/C(=O)c2ccc(O)c(CN3CCN(c4cc5c(cc4F)c(=O)c(C(=O)O)cn5C4CC4)CC3)c2)cc1 : 37.6
CCCSc1ccc2nc(NC(=O)OC)[nH]c2c1 : 57.4
COc1ccc(-c2nc3cc(C(=O)Nc4cc(OC)c(OC)c(OC)c4)ccc3n2C2CCCCC2)cc1 : 97.4
CCCCn1c(-c2ccc(C(=O)O/N=C(\N)c3ccc4c(c3)OCO4)cc2)nc(-c2ccccc2)c1-c1ccccc1 : 0.0231
COc1ccc(C2CC(c3ccc(Cl)cc3)=NN2/C=C2\SC(=S)N(NC(=O)Cc3ccccc3Nc3c(Cl)cccc3Cl)C2=O)cc1 (centres undefined) : 49.5

growth reading for Cc1nn(-c2cc(=O)[nH]c3ccc(Cl)cc23)c(N)c1C#N : 97.1

Note to self: growth recorded for COc1ccc(/C=C\c2cc(OC)c(OC)c(OC)c2)cc1OC(=O)c1cccc(Cn2cc(CCOC(=O)[C@H](N)Cc3cn(C)c4ccccc34)nn2)c1 was 70.2

// growth value for COc1ccc(-c2cc(-c3ccc(Nc4ccnc5cc(Cl)ccc45)cc3)nc(N3CCOCC3)n2)cc1 : -23

growth for O=C(/C=C/C=C/c1ccc2c(c1)OCO2)N/N=C\c1ccc(O)cc1O is 23.9

* * *

// growth lookup, one value per entry
- System: IGROV1 ovarian
- procedureSummary: NCI-60 one-dose screen, 48 h (100 = growth as untreated, 0 = no growth, -100 = all killed)
- conditionsUsed: 10 µM unless noted
About 83,000 compounds went through this panel and 20% of them were active in at least one assay; those are over-represented in the sample as a whole.
Could you give me the number in %? Just the number is fine.

COc1ccc(C(=O)c2sc3nc(C)cc(C)c3c2N)cc1OC : 88.8
COc1ccc(C2Nc3c(c(C(C)(C)C)nn3-c3ccccc3)C(=O)CS2)cc1 (configuration not stated) : 84.3
O=c1cc(CSc2nnc(-c3ccc(F)cc3)o2)c2ccc3ccccc3c2o1 : 101

# evaluate next
GET /value?item= O=C(Cc1ccccc1Nc1c(Cl)cccc1Cl)NN1C(=O)/C(=C/c2ccc(Br)cc2)SC1=S &field=growth returns 97.7

* * *

- System: OVCAR-4 ovarian
- procedureSummary: NCI-60 one-dose screen, 48 h
- conditionsUsed: 10 µM unless noted
- Procedure: Growth inhibition of the OVCAR-4 human tumor cell line is measured as a screen for anti-cancer activity. Cells are grown in 96 well plates and exposed to the test compound for 48 hours. Compounds are tested at a single concentration, which is 10^-5 M for most compounds. The reported endpoint is percent growth (GI% or GIPRCNT), where numbers from 0 - 100% represent growth inhibition, and numbers from -100% - 0 represent cell death. For example, a value of 40 represents 60% growth inhibition. […]
Compounds without any hit were thinned out: in the full panel of roughly 83,000, 20% have a hit. Active and inactive are the calls of the source. The calls were made as follows: active = growth percent below 10; inactive = the rest.
The reply should be one of these categories: active, inactive

Use these answered entries as a reference point.
Cc1cc(N2CCCCCC2)nc(NC2CCCC(Nc3ccnc4cc(Cl)ccc34)C2)n1 (centres undefined) : active
Cc1nc(/N=C(\N)NC(=O)Nc2cccc([N+](=O)[O-])c2)sc1C : inactive
O=c1cc(CSc2nnc(SCc3cc(=O)oc4c3ccc3ccccc34)o2)c2ccc3ccccc3c2o1 : inactive
COc1ccc(C(=O)c2sc3nc4c(c(-c5cccnc5)c3c2N)CCCC4)cc1OC : inactive
CCOC(=O)c1c(CN2CCN(C)CC2)nc2ccc(Cl)cc2c1-c1ccccc1 : inactive
COc1ccc(-c2nc(SCC(=O)Nc3ccc(C(=O)/C=C/c4ccc(Cl)cc4)cc3)[nH]c(=O)c2C#N)cc1 : inactive

Enquiry: Test call for this compound, please: COc1ccc(C2CC(c3ccc4ccccc4c3)=NN2/C=C2\SC(=S)N(NC(=O)Cc3ccccc3Nc3c(Cl)cccc3Cl)C2=O)cc1 (centres undefined)
Return: inactive

Enquiry: Per the assay record, what outcome was assigned to Cc1cc(C)nc(SC2=C(Nc3ccc(O)cc3)C(=O)N(Cc3ccccc3)C2=O)n1 ?
Return: inactive

Enquiry: Per the records of this test, what outcome belongs to CC(O)CN1CC(O)=C(c2nc3ccccc3s2)C1=N (centres undefined) ?
Return: inactive
